Origin of values: patent EP4603105A1

Test system: human lung cancer strain NCI-H441
Assay Explanation: NCI-H441 cell proliferation inhibitory activity (CellTiter-Glo, 4 days)
Format: cell-based
Assay Conditions: NCI-H441 cells, 4 days, read-out: NCl-H441 IC50
Method: A test compound was dispensed into a U-bottom 384-well plate as 40 nL serially diluted dimethyl sulfoxide solutions using a liquid handler Echo (LABCYTE). […] This cell suspension was dispensed in an amount of 40 µL per well into a plate containing the test compound, and cultured at 37°C in a 5% carbon dioxide gas incubator. Four days later, 20 µL of CellTiter-Glo (registered trademark) (Promega) was added to each well and […] was measured. […]
pIC50: −log10 of the molar value.
Reported Endpoint: pIC50

• CCCOC[C@H]1C(=O)N[C@@H]([C@@H](C)CC)C(=O)N(C)CC(=O)N(C)[C@H]2C/C=C\CCN(C2=O)[C@@H](Cc2ccc(C)cc2)C(=O)N(C)CC(=O)N[C@@H](CCc2ccc(C(F)(F)F)c(OC)c2)C(=O)N2C[C@@H](C)C[C@H]2C(=O)NC2(CC(C)(C)C2)C(=O)N(C)[C@@H](C2CCCC2)C(=O)N(C)[C@H](C(=O)N(C)CC)CC(=O)N1C = 7.97
• CCCO[C@@H]1C[C@H]2C(=O)NC3(CC(C)(C)C3)C(=O)N(C)[C@@H](C3CCCC3)C(=O)N(C)[C@H](C(=O)N(C)CC)CC(=O)N(C)[C@@H](COCC)C(=O)N[C@@H]([C@@H](C)CC)C(=O)N3C[C@@H](C)C[C@H]3C(=O)N(C)[C@H]3C/C=C\CCN(C3=O)[C@@H](Cc3ccc(C(F)(F)F)cc3)C(=O)N(C)CC(=O)N[C@@H](CCc3cc(F)c(C(F)(F)F)c(F)c3)C(=O)N2C1 = 7.61
• CCO[C@@H]1C[C@H]2C(=O)NC3(CC(C)(C)C3)C(=O)N(C)[C@@H](C3CCCC3)C(=O)N(C)[C@H](C(=O)N(CC)CC)CC(=O)N(C)[C@@H](COC)C(=O)N[C@@H]([C@@H](C)CC)C(=O)N(C)CC(=O)N(C)[C@H]3C/C=C\CCN(C3=O)[C@@H](Cc3ccc(C)cc3)C(=O)N(C)CC(=O)N[C@@H](CCc3cc(F)c(C(F)(F)F)c(F)c3)C(=O)N2C1 = 8.14

###

Collected Kd values appear next to each entry.
Experimental Target: GDP-bound KRAS wild-type protein (Homo sapiens, UniProt P01116)
Sequence (P01116 1-188 isoform P01116-2): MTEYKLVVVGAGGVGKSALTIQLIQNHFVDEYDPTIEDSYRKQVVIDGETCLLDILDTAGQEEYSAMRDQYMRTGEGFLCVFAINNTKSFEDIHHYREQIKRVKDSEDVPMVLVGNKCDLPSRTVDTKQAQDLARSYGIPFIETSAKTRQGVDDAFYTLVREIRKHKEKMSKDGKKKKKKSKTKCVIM
Assay Explanation: Binding to KRAS by surface plasmon resonance (SPR), dissociation constant KD
Assay Conditions: 1:1 binding model
Reported Endpoint: Kd

- CCC[C@H]1C(=O)N[C@@H]([C@@H](C)CC)C(=O)N(C2CC2)CC(=O)N(C)[C@H]2C/C=C\CCN(C2=O)[C@@H](Cc2ccc(C)cc2)C(=O)N(C)CC(=O)N[C@@H](CCc2cc(F)c(C(F)(F)F)c(F)c2)C(=O)N2C[C@H](OCC)C[C@H]2C(=O)NC2(CC(C)(C)C2)C(=O)N(C)[C@@H](C(CC)CC)C(=O)N(C)[C@H](C(=O)N(C)C)CC(=O)N1C [PP2560]: 1 nM
- CCC[C@H]1C(=O)N[C@@H](CC(C)C)C(=O)N(C2CC2)CC(=O)N(C)[C@H]2C/C=C\CCN(C2=O)[C@@H](Cc2ccc(C)cc2)C(=O)N(C)CC(=O)N[C@@H](CCc2cc(F)c(C(F)(F)F)c(F)c2)C(=O)N2C[C@H](OCC)C[C@H]2C(=O)NC2(CC(C)(C)C2)C(=O)N(C)[C@@H](C2CCCC2)C(=O)N(C)[C@H](C(=O)N(C)C)CC(=O)N1C [PP2508]: 3.4 nM
- CCO[C@@H]1C[C@H]2C(=O)NC3(CC(C)(C)C3)C(=O)N(C)[C@@H](C3CCCC3)C(=O)N(C)[C@H](C(=O)N(C)CC)CC(=O)N(C)[C@@H](COC)C(=O)N[C@@H]([C@@H](C)CC)C(=O)N(C)CC(=O)N(C)[C@H]3C/C=C\CCN(C3=O)[C@@H](Cc3ccc(C)cc3)C(=O)N(C)CC(=O)N[C@@H](CCc3ccc(C(F)(F)F)c(Cl)c3)C(=O)N2C1 [PP2507]: 0.061 nM

###

Collected log10 Kd values appear next to each entry.
Experimental Target: GDP-bound KRAS wild-type protein (Homo sapiens)
Assay Explanation: Binding to KRAS by surface plasmon resonance (SPR), dissociation constant KD
Assay Conditions: Single Cycle Kinetics
Reported Endpoint: log10 Kd (log10 of the value in nM)

• CCC[C@H]1C(=O)N[C@@H]([C@@H](C)CC)C(=O)N(C2CC2)CC(=O)N(C)[C@H]2C/C(F)=C\CCN(C2=O)[C@@H](Cc2ccc(C)cc2)C(=O)N(C)CC(=O)N[C@@H](CCc2cc(F)c(C(F)(F)F)c(F)c2)C(=O)N2C[C@H](OCC)C[C@H]2C(=O)N(C)C2(CCC2)C(=O)N(C)[C@@H](C2CCCC2)C(=O)N(C)[C@H](C(=O)N(C)C)CC(=O)N1C = -0.42
• CCCO[C@@H]1C[C@H]2C(=O)NC3(CC(C)(C)C3)C(=O)N(C)[C@@H](C3CCCC3)C(=O)N(C)[C@H](C(=O)N(C)CC)CC(=O)N(C)[C@@H](COCC)C(=O)N[C@@H]([C@@H](C)CC)C(=O)N(C3CC3)CC(=O)N(C)[C@H]3C/C=C\CCN(C3=O)[C@@H](Cc3ccc(C)cc3)C(=O)N(C)CC(=O)N[C@@H](CCc3cc(F)c(C(F)(F)F)c(F)c3)C(=O)N2C1 = -0.09
• CCCO[C@@H]1C[C@H]2C(=O)NC3(CC(C)(C)C3)C(=O)N(C)[C@@H](C3CCCC3)C(=O)N(C)[C@H](C(=O)N(C)CC)CC(=O)N(C)[C@@H](COCC)C(=O)N[C@@H]([C@@H](C)CC)C(=O)N3CCC[C@H]3C(=O)N(C)[C@H]3C/C=C\CCN(C3=O)[C@@H](Cc3ccc(C)cc3)C(=O)N(C)CC(=O)N[C@@H](CCc3cc(F)c(C(F)(F)F)c(F)c3)C(=O)N2C1 = -0.01
• CCO[C@@H]1C[C@H]2C(=O)NC3(CCCC3)C(=O)N(C)[C@@H](C3CCCC3)C(=O)N(C)[C@H](C(=O)N(C)C)CC(=O)N(C)[C@@H]([C@@H](C)OC)C(=O)N[C@@H]([C@@H](C)CC)C(=O)N3CCC[C@H]3C(=O)N(C)[C@H]3C/C=C\CCN(C3=O)[C@@H](Cc3ccc(C)cc3)C(=O)N(C)CC(=O)N[C@@H](CCc3cc(F)c(C(F)(F)F)c(F)c3)C(=O)N2C1 = -0.06
• CCCO[C@@H]1C[C@H]2C(=O)NC3(CC(C)(C)C3)C(=O)N(C)[C@@H](C3CCCC3)C(=O)N(C)[C@H](C(=O)N(C)CC)CC(=O)N(C)[C@@H](COCC)C(=O)N[C@@H]([C@@H](C)CC)C(=O)N3CCC[C@H]3C(=O)N(C)[C@H]3C/C=C\CCN(C3=O)[C@@H](Cc3ccc(C(F)(F)F)cc3)C(=O)N(C)CC(=O)N[C@@H](CCc3ccc(C(F)(F)F)c(Cl)c3)C(=O)N2C1 = 0.18
• CCC[C@H]1C(=O)N[C@@H]([C@@H](C)CC)C(=O)N(C)CC(=O)N(C)[C@H]2C/C(F)=C\CCN(C2=O)[C@@H](Cc2ccc(C)cc2)C(=O)N(C)CC(=O)N[C@@H](CCc2cc(F)c(C(F)(F)F)c(F)c2)C(=O)N2C[C@H](OCC)C[C@H]2C(=O)N(C)C2(CCC2)C(=O)N(C)[C@@H](C2CCCC2)C(=O)N(C)[C@H](C(=O)N(C)C)CC(=O)N1C = -1.21
• CCCOC[C@H]1C(=O)N[C@@H](C2CCCC2)C(=O)N(CCC)CC(=O)N(C)[C@H]2C/C=C\CCN(C2=O)[C@@H](Cc2ccc(C(F)F)cc2)C(=O)N(C)CC(=O)N[C@@H](CCc2cc(F)c(C(F)(F)F)c(F)c2)C(=O)N2C[C@H](OC(C)C)C[C@H]2C(=O)N(C)C2(CCC2)C(=O)N(C)[C@@H](C(CC)CC)C(=O)N(C)[C@H](C(=O)N(C)C)CC(=O)N1C = -0.02
• CCC[C@H]1C(=O)N[C@@H]([C@@H](C)CC)C(=O)N2CCC[C@H]2C(=O)N(C)[C@H]2C/C=C\CCN(C2=O)[C@@H](Cc2ccc(C(F)(F)F)cc2)C(=O)N(C)CC(=O)N[C@@H](CCc2cc(F)c(C(F)(F)F)c(F)c2)C(=O)N2C[C@H](OCC)C[C@H]2C(=O)NC2(CCCC2)C(=O)N(C)[C@@H](C2CCCC2)C(=O)N(C)[C@H](C(=O)N(C)C)CC(=O)N1C = -0.37
• CCO[C@@H]1C[C@H]2C(=O)NC3(CC(C)(C)C3)C(=O)N(C)[C@@H](C3CCCC3)C(=O)N(C)[C@H](C(=O)N(C)CC)CC(=O)N(C)[C@@H]([C@@H](C)OC)C(=O)N[C@@H]([C@@H](C)CC)C(=O)N3CCC[C@H]3C(=O)N(C)[C@H]3C/C=C\CCN(C3=O)[C@@H](Cc3ccc(C(F)(F)F)cc3)C(=O)N(C)CC(=O)N[C@@H](CCc3cc(F)c(C(F)(F)F)c(F)c3)C(=O)N2C1 = -0.09
• CCC[C@H]1C(=O)N[C@@H]([C@@H](C)CC)C(=O)N(C)CC(=O)N(C)[C@H]2C/C=C\CCN(C2=O)[C@@H](Cc2ccc(C(F)(F)F)cc2)C(=O)N(C)CC(=O)N[C@@H](CCc2ccc(C(F)(F)F)c(OC)c2)C(=O)N2CC3(CC3)C[C@H]2C(=O)N(C)C2(CCC2)C(=O)N(C)[C@@H](C(CC)CC)C(=O)N(C)[C@H](C(=O)N(C)C)CC(=O)N1C = 0.18
• CCO[C@@H]1C[C@H]2C(=O)NC3(CCC3)C(=O)N(C)[C@@H](C3CCCC3)C(=O)N(C)[C@H](C(=O)N(C)C)CC(=O)N(C)[C@@H](CC)C(=O)N[C@@H]([C@@H](C)CC)C(=O)N(C)CC(=O)N(C)[C@H]3CC(C)=C(C)CN(C3=O)[C@@H](Cc3ccc(C(F)(F)F)cc3)C(=O)N(C)CC(=O)N[C@@H](CCc3cc(F)c(C(F)(F)F)c(F)c3)C(=O)N2C1 = -0.31
